Target: T1, Human BCMA (human, UniProt Q02223 1-54, limits assumed)
T1 construct: Soluble analyte in SPR; construct not described; also called huBCMA; B-cell maturation antigen
T1 sequence (looked up): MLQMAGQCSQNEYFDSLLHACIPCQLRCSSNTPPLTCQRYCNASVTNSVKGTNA
Assay: SPR, IgG immobilised, 37 C
Reported kon values for the following binders.
Reply with just the number (in M⁻¹ s⁻¹).

Q. kon lookup needed for L3.PY/L3.KF/H2.LT (antibody, V domains shown, IgG) VH: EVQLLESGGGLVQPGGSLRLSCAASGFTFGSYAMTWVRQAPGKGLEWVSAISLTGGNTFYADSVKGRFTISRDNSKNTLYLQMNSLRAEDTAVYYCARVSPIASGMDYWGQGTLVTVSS VL: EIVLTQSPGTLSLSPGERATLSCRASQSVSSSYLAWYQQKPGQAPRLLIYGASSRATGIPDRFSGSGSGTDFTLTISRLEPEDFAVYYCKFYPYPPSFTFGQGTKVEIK , thanks.
A. 2.75e+06

Q. For L3.PY/L3.KF/H3.TAQ (antibody, V domains shown, IgG) VH: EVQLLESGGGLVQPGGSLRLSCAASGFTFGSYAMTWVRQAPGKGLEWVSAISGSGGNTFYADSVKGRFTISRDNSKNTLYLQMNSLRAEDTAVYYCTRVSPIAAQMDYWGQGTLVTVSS VL: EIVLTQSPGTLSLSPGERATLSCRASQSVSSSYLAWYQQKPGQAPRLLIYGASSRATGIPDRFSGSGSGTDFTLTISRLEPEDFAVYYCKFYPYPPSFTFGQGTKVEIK , what is its reported kon?
A. 2.82e+06
